Multi-source literature compilation: IC50 on Cytochrome P450 3A4 (Homo sapiens, UniProt P08684).

Exercise: Would you kindly share the measured IC50 for C[C@@H](c1ccccc1-c1ccc(F)cc1)n1cncc1C(=O)N1CCCC(N2CCC(C)(O)CC2)CC1 (single isomer, unassigned) ?
Key: 0.0073 µM

Exercise: Another molecule to look at: CCCNS(=O)(=O)Nc1ncnc(OCCOc2ncc(Br)cn2)c1-c1ccc2ccnn2c1
Key: > 50 µM

Exercise: Try this molecule next: Cc1cc(-c2ccc([C@H](C)N3CC[C@](CCO)(c4ccc(F)cc4)OC3=O)cc2)ccn1
Key: 14.9 µM

Exercise: Note, next up: Cc1ncc(-c2ccc([C@H](C)N3CC[C@](CC(C)(C)O)(c4ccccc4)OC3=O)cc2)s1
Key: 9.8 µM

Exercise: Follow-up item: Cc1nn(C)cc1-c1ccc([C@H](C)N2CC[C@](CC(C)(C)O)(c3ccccc3)OC2=O)cc1
Key: 26.6 µM

Exercise: Continue with Cc1cc(Nc2ncc(Cl)c(Nc3cn(C)nc3S(=O)(=O)C(C)C)n2)c(OC2CC2)cc1C1CCN(C(=O)CC#N)CC1
Key: > 10 µM

Exercise: And the next one, C=CC(=O)N1CCN(c2nc(OC[C@@H]3CCCN3C)nc3c(F)c(-c4ccc(F)c5sc(N)nc45)c(Cl)cc23)C[C@H]1C ?
Key: > 10 µM

Exercise: Thanks! And CN(C)C(=O)CCC(=O)Nc1cc2n(n1)CCN2c1cccc(Cl)c1 ?
Key: > 20 µM

Exercise: Then CN(C)CC(=O)Nc1cc(NC(=O)c2cccnc2NCc2ccnc3[nH]ccc23)ccc1C(C)(C)C ?
Key: > 20 µM

Exercise: Okay, and CC(F)(F)[C@H]1OC(N)=N[C@](C)(c2cc(NC(=O)c3ccc(C#N)cn3)ccc2F)[C@H]1F ?
Key: ≥ 20 µM

Exercise: Same read-out for CO[C@H]1CN(C2CCN(C(=O)c3cncn3[C@@H](C)c3ccccc3-c3ccc(F)cc3)CC2)CC[C@H]1O ?
Key: 0.006 µM

Exercise: And CC(C)(C)c1cc(NC(=O)c2cccnc2NCc2ccnc3[nH]ccc23)no1 ?
Key: > 20 µM

Exercise: Follow-up entry: C[C@@H](c1ccc(-c2ncc(C(=O)N(C)C)s2)cc1)N1CC[C@](CC(C)(C)O)(c2ccccc2)OC1=O
Key: > 50 µM

---

pIC50: −log10 of the molar value.
Here, compounds appear alongside pIC50 reported for Cytochrome P450 3A4 (Homo sapiens, UniProt P08684) in the literature.

Exercise: Look up pIC50 for this compound: CC[C@@H](C#N)NC(=O)c1ccc(-c2nc(Nc3cnn(C(C)C(F)(F)F)c3)ncc2C)cc1 (stereo partly drawn)
Key: < 4.30

Exercise: What do we get for C[C@H](c1ccc(F)cc1)n1cncc1CN1CCN(S(=O)(=O)c2cnc(N3CCC4(CC3)CNC(=O)N4)s2)CC1 ?
Key: 8.57

Exercise: Check C[C@H]1SC(N)=N[C@](C)(c2cc(NC(=O)c3coc(CF)n3)ccc2F)[C@H]1F too.
Key: ≤ 4.70

Exercise: Now the same for COc1ccc(C(=O)Nc2ccc(F)c([C@@]3(C)N=C(N)S[C@H](C)[C@@H]3F)c2)nn1
Key: ≤ 4.70

Exercise: Again, but for CN1CCc2cc(N3CCn4nc(NC(=O)c5cccnc5)cc43)ccc2C1=O
Key: < 4.70

Exercise: What do we get for Fc1cc(F)c(F)c(-c2ccc(N[C@H]3C[C@@H]4CN(Cc5ccccn5)C[C@@H]4C3)nn2)c1 ?
Key: < 4.52

Exercise: Entry C[C@]1(c2cc(NC(=O)c3cnc(OCF)cn3)ccc2F)N=C(N)SCC12CC(F)(F)C2 please
Key: ≤ 5.00

Exercise: # repeat for CN(C(=O)N[C@@H](CCN1CCOCC1)C(=O)N[C@H](CC[C@H](Cc1ccccc1)NC(=O)OCc1cncs1)Cc1ccccc1)C(C)(C)C
Key: 6.38

Exercise: What do you have for C[C@H](c1ccc(F)cc1)n1cncc1CN1CCN(S(=O)(=O)c2ccc(N3CCNCC3)cn2)CC1 ?
Key: 8.36
